# credit: ChEMBL document CHEMBL3885861

- Species on record: Rattus norvegicus
- PROTOCOL_SUMMARY: Open TG-GATES - Regimen: Single
- Type: toxicity, organism-based, Sprague-Dawley
- Set-up: regimen Single, gender Male, age 6 weeks
- CONDITION_PARAMETERS: in vivo, po, 1000 mg/kg, 3 h, tissue Blood, route gavage, dose level High
MEASURED_QUANTITY: Ht
Report the figure along with its unit, number first.

// known answers, use as guide
>>> df
                                   compound  recorded_result
0          CCc1cc(C(N)=S)ccn1 [ETHIONAMIDE]            40.6%
1  O=C(O)c1cc(/N=N/c2ccc(S(=O)(=O)Nc3ccccn3)cc2)ccc1O            39.6%

Record Clc1ccccc1CN1CCc2sccc2C1 , field Ht: 36.9%

Record C[C@H](CS)C(=O)N1CCC[C@H]1C(=O)O , field Ht: 40.9%
